- tgt: Thromboxane-A synthase (Homo sapiens) (UniProt P24557)
- Sequence (P24557 whole entry): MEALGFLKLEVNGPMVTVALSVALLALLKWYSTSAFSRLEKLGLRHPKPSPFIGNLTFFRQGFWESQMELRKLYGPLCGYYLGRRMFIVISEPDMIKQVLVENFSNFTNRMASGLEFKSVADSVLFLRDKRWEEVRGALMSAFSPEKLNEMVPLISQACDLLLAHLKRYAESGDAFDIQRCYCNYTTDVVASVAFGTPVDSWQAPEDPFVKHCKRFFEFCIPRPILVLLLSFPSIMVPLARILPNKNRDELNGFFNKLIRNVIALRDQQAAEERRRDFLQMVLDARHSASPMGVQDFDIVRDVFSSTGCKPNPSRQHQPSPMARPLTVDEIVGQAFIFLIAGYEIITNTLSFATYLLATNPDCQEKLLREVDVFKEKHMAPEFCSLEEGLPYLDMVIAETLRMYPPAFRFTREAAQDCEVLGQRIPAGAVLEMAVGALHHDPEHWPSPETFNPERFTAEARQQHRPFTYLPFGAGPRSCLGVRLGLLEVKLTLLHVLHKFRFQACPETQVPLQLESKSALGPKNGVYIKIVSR
- assay-details: Compound was evaluated for inhibition of TXA2 synthase by measuring collagen stimulated TXB2 production in the blood samples after 8 hr time at a dose of 0.05 mg/kg
- Type: functional, organism-based
- Parameters: dose 0.05 mg/kg
- experimental-parameters: Canis lupus familiaris
quantity: inhibition (%)

- N#Cc1ccc([C@H]2OC[C@@H](C/C=C\CCC(=O)Oc3ccccc3OC(=O)CC/C=C\C[C@@H]3CO[C@H](c4ccccc4Cl)O[C@@H]3c3ccccc3O)[C@@H](c3cccnc3)O2)cc1 (stereo in doubt; 16 (-)): 64
- N#Cc1ccc([C@H]2OC[C@@H](C/C=C\CCC(=O)Oc3ccccc3OC(=O)CC/C=C\C[C@@H]3CO[C@H](c4ccccc4Cl)O[C@@H]3c3ccccc3O)[C@@H](c3cccnc3)O2)cc1 (stereo in doubt; 15): 57
